tested on: Male OLETF (Otsuka Long-Evans Tokushima fatty) rats, the type II diabetes animal model (obesity); experiment: Oral glucose tolerance test (OGTT) 3; type: in vivo, rat; conditions: oral dose 10 mg/kg

{"columns": ["Compound", "% AUC"],
 "data": [
  ["CC#C[C@@H](CC(=O)O)c1ccc(OCc2ccc(CN3CC=C(c4ccccc4)CC3)cc2)cc1", "B (25.0-35.0%)"],
  ["CC#CC(CC(=O)O)c1ccc(OCc2ccc(CN3CC=C(c4ccccc4)CC3)cc2)cc1 (stereo not drawn)", "B (25.0-35.0%)"],
  ["CC#C[C@@H](CC(=O)[O-])c1ccc(OCc2cccc(N3CCN(c4ccc(OC)cc4)CC3)c2)cc1.[Na+]", "B (25.0-35.0%)"],
  ["CC#C[C@@H](CC(=O)[O-])c1ccc(OCc2ccc(CN3Cc4ccccc4C3)cc2)cc1.[Na+]", "A (over 35.0%)"],
  ["CC#CC(CC(=O)O)c1ccc(OCc2cccc(C3=CCC(O)CC3)c2)cc1 (stereo not drawn)", "A (over 35.0%)"],
  ["CC#C[C@@H](CC(=O)O)c1ccc(OCc2cccc(C3=CCC4(CC3)OCCO4)c2)cc1", "A (over 35.0%)"]
]}

* * *

molecular target: CYP3A4 (Homo sapiens (Human)); assay: CYP inhibition (BD GENTEST kit); type: in vitro ADME; conditions: CYP3A4 enzyme of BD GENTEST inhibition kit, pH 7.4, read-out: CYP inhibition (%) 3A4
Sequence (P08684 whole entry): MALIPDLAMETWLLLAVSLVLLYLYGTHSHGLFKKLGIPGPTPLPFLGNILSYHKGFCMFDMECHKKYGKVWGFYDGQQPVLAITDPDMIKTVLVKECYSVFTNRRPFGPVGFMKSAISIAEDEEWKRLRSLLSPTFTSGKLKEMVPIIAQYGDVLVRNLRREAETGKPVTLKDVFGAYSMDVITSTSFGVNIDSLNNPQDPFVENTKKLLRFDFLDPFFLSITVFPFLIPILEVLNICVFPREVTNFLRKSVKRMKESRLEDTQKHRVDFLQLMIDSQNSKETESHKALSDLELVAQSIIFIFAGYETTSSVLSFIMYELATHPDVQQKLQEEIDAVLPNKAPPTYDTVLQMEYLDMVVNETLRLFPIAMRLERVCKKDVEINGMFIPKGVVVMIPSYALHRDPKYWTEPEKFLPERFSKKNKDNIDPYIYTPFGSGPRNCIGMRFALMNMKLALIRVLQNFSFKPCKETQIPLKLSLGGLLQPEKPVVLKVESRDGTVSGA
# key: entry, value: inhibition at 30 min, 10 µM
Quantity name: inhibition at 30 min, 10 µM (%)

{"columns": ["Compound", "Quantity name", "Observed result"],
 "data": [
  ["CC#C[C@@H](CC(=O)O)c1ccc(OCc2cccc(C3=CCC4(CC3)OCCO4)c2)cc1", "inhibition at 30 min, 10 µM", 15.5],
  ["CC#C[C@@H](CC(=O)O)c1ccc(OCc2ccc(CN3CCc4ccccc4C3)cc2)cc1", "inhibition at 30 min, 10 µM", 27.3],
  ["CC#CC(CC(=O)O)c1ccc(OCc2cccc(C3=CCC4(CC3)OCCO4)c2)cc1 (centres unmarked)", "inhibition at 30 min, 10 µM", 12.7],
  ["CC#C[C@@H](CC(=O)O)c1ccc(OCc2ccc(CN3CCN(c4ccc(OCOC)cc4)CC3)cc2)cc1", "inhibition at 30 min, 10 µM", 0],
  ["CC#C[C@@H](CC(=O)O)c1ccc(OCc2ccc(CN3CCC(c4ccccc4)CC3)cc2)cc1", "inhibition at 30 min, 10 µM", 14.1]
]}

* * *

Listing of recorded inhibition at 30 min, 10 µM by entry.
biological target: CYP3A4 (Homo sapiens (Human)); experiment: CYP inhibition (BD GENTEST kit); type: in vitro ADME; conditions: CYP3A4 enzyme of the BD GENTEST CYP3A4 inhibition kit, pH 7.4, read-out: CYP inhibition (%) 3A4
Quantity name: inhibition at 30 min, 10 µM

{"columns": ["Molecule", "Assayed target", "Observed result"],
 "data": [
  ["CC#C[C@@H](CC(=O)O)c1ccc(OCc2ccc(CN3Cc4ccccc4C3)cc2)cc1", "CYP3A4 (Homo sapiens (Human))", "18.1%"],
  ["CC#CC(CC(=O)O)c1ccc(OCc2ccc(C3=CCC4(CC3)OCCO4)cc2)cc1 (stereo not drawn)", "CYP3A4 (Homo sapiens (Human))", "33.1%"],
  ["CC#C[C@@H](CC(=O)O)c1ccc(OCc2cccc(C3=CCC4(CC3)OCCO4)c2)cc1", "CYP3A4 (Homo sapiens (Human))", "15.5%"]
]}

* * *

target: CYP2D6 (Homo sapiens (Human), UniProt P10635); test: CYP inhibition (Invitrogen Vivid kit); type: in vitro ADME; settings: P450 BACULOSOMES reagent (Invitrogen Vivid CYP2D6 kit P2862), probe Vivid CYP450 substrate, read-out: CYP inhibition (%) 2D6
Sequence (P10635 whole entry): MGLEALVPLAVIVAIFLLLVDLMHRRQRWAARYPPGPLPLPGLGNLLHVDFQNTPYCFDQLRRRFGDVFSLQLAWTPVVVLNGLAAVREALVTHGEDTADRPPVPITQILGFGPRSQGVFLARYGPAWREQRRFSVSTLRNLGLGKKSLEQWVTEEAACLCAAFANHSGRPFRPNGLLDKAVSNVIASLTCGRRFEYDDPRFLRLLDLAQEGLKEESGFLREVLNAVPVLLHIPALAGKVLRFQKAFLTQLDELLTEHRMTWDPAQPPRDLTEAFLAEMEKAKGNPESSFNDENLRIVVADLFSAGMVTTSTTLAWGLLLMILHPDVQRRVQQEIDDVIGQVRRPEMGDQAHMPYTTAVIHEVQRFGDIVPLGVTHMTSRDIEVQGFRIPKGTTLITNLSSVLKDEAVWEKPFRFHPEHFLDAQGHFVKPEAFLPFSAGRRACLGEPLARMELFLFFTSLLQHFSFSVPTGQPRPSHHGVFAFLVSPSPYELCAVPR

{"columns": ["Compound", "inhibition at 1 h, 10 µM"],
 "data": [
  ["CC#C[C@@H](CC(=O)O)c1ccc(OCc2ccc(CN3CCN(c4ccc(OCOC)cc4)CC3)cc2)cc1 [Example 29]", "18.2%"],
  ["CC#C[C@@H](CC(=O)O)c1ccc(OCc2cccc(C3=CCC4(CC3)OCCO4)c2)cc1 [Example 7]", "13.9%"],
  ["CC#C[C@@H](CC(=O)O)c1ccc(OCc2ccc(CN3CCC4(C=Cc5ccccc54)CC3)cc2)cc1 [Comparative Example 2, reference compound]", "63.2%"],
  ["CC#CC(CC(=O)O)c1ccc(OCc2cccc(C3=CCC(=O)CC3)c2)cc1 (stereo not drawn) [Example 4]", "19.3%"],
  ["CC#C[C@@H](CC(=O)O)c1ccc(OCc2ccc(CN3CCC(c4ccccc4)CC3)cc2)cc1 [Example 26]", "2.3%"],
  ["CC#C[C@@H](CC(=O)O)c1ccc(OCc2ccc(CN3CCN(c4ccc(OCCCS(C)(=O)=O)cc4)CC3)cc2)cc1 [Example 36]", "1.8%"],
  ["CC#C[C@@H](CC(=O)O)c1ccc(OCc2ccc(CN3CCN(c4ccc(OC)cc4)CC3)cc2)cc1 [Example 40]", "17.9%"],
  ["CC#C[C@@H](CC(=O)O)c1ccc(OCc2ccc(CN3CCc4ccccc4C3)cc2)cc1 [Example 21]", "16.1%"],
  ["CC#CC(CC(=O)O)c1ccc(OCc2cccc(C3=CCC4(CC3)OCCO4)c2)cc1 (stereo not drawn) [Example 1]", "1.9%"]
]}

* * *

target: GPR40 (Homo sapiens (Human)); experiment: GPR40 protein activity by intracellular calcium concentration (Fluo-4, Flexstation 3) in transfected HEK-293 cells; type: cell-based; details: HEK-293 cells transfected with human GPR40, intracellular calcium; read-out: EC50
pEC50: −log10 of the molar value.
Entries and their measured pEC50 follow.

{"columns": ["Compound", "pEC50"],
 "data": [
  ["CC#C[C@@H](CC(=O)O)c1ccc(OCc2ccc(CCN3CCc4cc(OC)ccc4C3)cc2)cc1", "< 6.52"],
  ["CC#C[C@@H](CC(=O)O)c1ccc(OCc2ccc(CN3CCN(c4ccc(OCOC)cc4)CC3)cc2)cc1", "6.52 to 6.70"],
  ["CC#C[C@@H](CC(=O)O)c1ccc(OCc2ccc(CN3CCN(c4ccc(OC)cc4)CC3)cc2)cc1", "6.52 to 6.70"],
  ["CC#C[C@@H](CC(=O)O)c1ccc(OCc2ccc(CCN3Cc4ccccc4C3)cc2)cc1", "< 6.52"],
  ["CC#CC(CC(=O)O)c1ccc(OCc2ccc(CN3CCC(c4ccccc4)CC3)cc2)cc1 (centres unmarked)", "< 6.52"],
  ["CC#CC(CC(=O)O)c1ccc(OCc2ccc(CN3CCN(c4ccc(F)cc4)CC3)cc2)cc1 (centres unmarked)", "< 6.52"],
  ["CC#C[C@@H](CC(=O)O)c1ccc(OCc2ccc(CN3CCCc4ccccc43)cc2)cc1", "< 6.52"],
  ["CC#CC(CC(=O)O)c1ccc(OCc2cccc(C3=CCC(O)CC3)c2)cc1 (centres unmarked) [Example 6]", "6.52 to 6.70"]
]}

* * *

# pEC50 per record follows
target: GPR40 (Homo sapiens (Human), UniProt O14842); assay: GPR40 protein activity by intracellular calcium concentration (Fluo-4, Flexstation 3) in transfected HEK-293 cells; type: cell-based; conditions: HEK-293 cells transfected with human GPR40, intracellular calcium; read-out: EC50
Sequence (O14842 whole entry): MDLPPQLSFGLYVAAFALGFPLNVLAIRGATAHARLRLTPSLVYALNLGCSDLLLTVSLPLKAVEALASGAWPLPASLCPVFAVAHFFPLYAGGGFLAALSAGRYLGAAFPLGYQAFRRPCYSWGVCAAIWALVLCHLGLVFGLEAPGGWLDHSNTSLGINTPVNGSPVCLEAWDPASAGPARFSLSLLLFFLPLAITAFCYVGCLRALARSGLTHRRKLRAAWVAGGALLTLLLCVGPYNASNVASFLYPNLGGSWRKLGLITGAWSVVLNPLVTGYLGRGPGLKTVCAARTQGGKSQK
pEC50: −log10 of the molar value.

{"columns": ["Compound", "pEC50"],
 "data": [
  ["CC#C[C@@H](CC(=O)O)c1ccc(OCc2ccc(CN3CCc4cc(OC)ccc4C3)cc2)cc1", "< 6.52"],
  ["CC#CC(CC(=O)O)c1ccc(OCc2cccc(C3=CCC(=O)CC3)c2)cc1 (stereo not shown)", "< 6.52"],
  ["CC#C[C@@H](CC(=O)O)c1ccc(OCc2ccc(C(C)N3CCc4ccccc4C3)cc2)cc1 (stereo partly shown)", "< 6.52"],
  ["CC#C[C@@H](CC(=O)O)c1ccc(OCc2ccc(CCN3CCc4ccccc4C3)cc2)cc1", "< 6.52"],
  ["CC#C[C@@H](CC(=O)O)c1ccc(OCc2ccc(CN3CCC(c4ccccc4)C3)cc2)cc1 (stereo partly shown)", "< 6.52"],
  ["CC#C[C@@H](CC(=O)O)c1ccc(OCc2ccc(CN3CC=C(c4ccc(F)cc4)CC3)cc2)cc1", "6.52 to 6.70"],
  ["CC#C[C@@H](CC(=O)O)c1ccc(OCc2ccc(CN3CCN(c4ccc(C(F)(F)F)cc4)CC3)cc2)cc1", "< 6.52"],
  ["CC#C[C@@H](CC(=O)[O-])c1ccc(OCc2cccc(N3CCN(c4ccc(OC)cc4)CC3)c2)cc1.[Na+]", "6.52 to 6.70"],
  ["CC#C[C@@H](CC(=O)O)c1ccc(OCc2ccc(CN3CC=C(c4ccc(S(C)(=O)=O)cc4)CC3)cc2)cc1", "< 6.52"],
  ["CC#CC(CC(=O)O)c1ccc(OCc2ccc(C3=CCC4(CC3)OCCO4)cc2)cc1 (stereo not shown)", "< 6.52"],
  ["CC#C[C@@H](CC(=O)O)c1ccc(OCc2ccc(CN3CCc4ccccc4C3)cc2)cc1", "6.52 to 6.70"],
  ["CC#CC(CC(=O)O)c1ccc(OCc2ccc(CN3CC=C(c4ccccc4)CC3)cc2)cc1 (stereo not shown)", "> 6.70"],
  ["CC#C[C@@H](CC(=O)O)c1ccc(OCc2ccc(CN3CC=C(c4ccc(OCCCS(C)(=O)=O)cc4)CC3)cc2)cc1", "< 6.52"]
]}

Hey, just so you know, these numbers are from patent US9969723B2.
